measuredTarget: ΔF508-CFTR (Homo sapiens, UniProt P13569, DEL508-508)
Construct: host or cells: CFBE41o-, doxycycline-inducible
Sequence (P13569 with tags, fused parts or gaps DEL508-508): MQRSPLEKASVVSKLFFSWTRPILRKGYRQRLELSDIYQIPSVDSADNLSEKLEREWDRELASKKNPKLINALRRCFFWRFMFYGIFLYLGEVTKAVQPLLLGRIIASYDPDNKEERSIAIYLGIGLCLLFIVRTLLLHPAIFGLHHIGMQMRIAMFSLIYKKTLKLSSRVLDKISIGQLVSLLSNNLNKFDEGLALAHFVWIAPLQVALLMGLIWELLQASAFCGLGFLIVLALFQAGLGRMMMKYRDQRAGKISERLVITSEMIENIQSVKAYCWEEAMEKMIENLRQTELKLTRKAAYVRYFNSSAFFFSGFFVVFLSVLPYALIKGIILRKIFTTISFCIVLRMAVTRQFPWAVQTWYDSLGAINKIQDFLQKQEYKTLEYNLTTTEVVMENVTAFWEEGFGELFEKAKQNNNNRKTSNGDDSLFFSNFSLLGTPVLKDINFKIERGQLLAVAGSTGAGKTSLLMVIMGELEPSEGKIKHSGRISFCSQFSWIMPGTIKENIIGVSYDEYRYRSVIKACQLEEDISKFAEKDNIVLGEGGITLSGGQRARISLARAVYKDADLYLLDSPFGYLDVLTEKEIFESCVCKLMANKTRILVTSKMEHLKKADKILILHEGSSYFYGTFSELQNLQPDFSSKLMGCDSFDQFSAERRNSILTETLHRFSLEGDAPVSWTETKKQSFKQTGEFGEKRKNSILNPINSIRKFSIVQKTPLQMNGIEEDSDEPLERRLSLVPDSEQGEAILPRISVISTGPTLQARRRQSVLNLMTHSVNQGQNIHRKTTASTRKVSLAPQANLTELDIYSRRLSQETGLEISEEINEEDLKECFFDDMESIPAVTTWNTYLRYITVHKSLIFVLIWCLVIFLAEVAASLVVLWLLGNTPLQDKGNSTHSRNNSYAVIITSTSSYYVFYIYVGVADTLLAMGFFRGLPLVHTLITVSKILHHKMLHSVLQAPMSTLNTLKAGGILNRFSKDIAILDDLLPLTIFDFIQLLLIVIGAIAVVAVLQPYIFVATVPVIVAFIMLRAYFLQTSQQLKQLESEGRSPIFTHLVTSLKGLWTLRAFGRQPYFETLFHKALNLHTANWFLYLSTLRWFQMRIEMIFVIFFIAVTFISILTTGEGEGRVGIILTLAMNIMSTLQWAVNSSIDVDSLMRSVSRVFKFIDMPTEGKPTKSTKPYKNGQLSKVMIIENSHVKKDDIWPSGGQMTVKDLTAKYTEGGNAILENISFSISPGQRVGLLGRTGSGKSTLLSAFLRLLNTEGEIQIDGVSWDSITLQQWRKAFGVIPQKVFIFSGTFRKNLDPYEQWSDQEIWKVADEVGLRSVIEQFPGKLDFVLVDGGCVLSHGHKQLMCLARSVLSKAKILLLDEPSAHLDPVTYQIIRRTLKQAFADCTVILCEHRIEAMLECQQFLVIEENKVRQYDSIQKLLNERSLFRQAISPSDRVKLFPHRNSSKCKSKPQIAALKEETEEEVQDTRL
procedureDetails: CFTR cell surface levels using HRP-tagged ΔF508-CFTR expressing CFBE cells, in the presence of a co-corrector
Format: cell-based
recordedConditions: HRP-tagged ΔF508-CFTR expressing CFBE cells, in the presence of 3 μM co-corrector
# % Activation per record follows
Field format: number, assumed %, no unit text.

>>> observedvalue("O=C(O)c1cc(N2CC3(CCOCC3)C2)c2c(C3CCC3)nn(-c3ccccc3)c2n1")
262.45
>>> observedvalue("COCCOC1CCN(c2cc(C(=O)O)nc3c2c(C2CCC2)nn3-c2ccccc2)CC1")
510.3
>>> observedvalue("COC(C)C1CCN(c2cc(C(=O)O)nc3c2c(C2CCC2)nn3-c2ccccc2)CC1 (stereo not drawn)")
435.9
>>> observedvalue("CC(C)c1nn(-c2ccc(F)cc2)c2nc(C(=O)O)cc(N3CCC(N4CCN(C5COC5)CC4)CC3)c12")
337.3
>>> observedvalue("CC(C)c1nn(-c2cccc(N3CCCC3)c2)c2nc(C(=O)O)cc(-c3ccc(N(C)C4CCOCC4)nc3)c12")
622.03

Please look up its % Activation: `COCC(COC)Oc1cc(C(=O)O)nc2c1c(C1CCC1)nn2-c1ccccc1`
256.5

----------
measuredTarget: ΔF508-CFTR (Homo sapiens, UniProt P13569, DEL508-508)
Construct: host or cells: CFBE41o-, doxycycline-inducible
procedureDetails: CFTR cell surface levels using HRP-tagged ΔF508-CFTR expressing CFBE cells, in the presence of a co-corrector
Format: cell-based
recordedConditions: HRP-tagged ΔF508-CFTR expressing CFBE cells, in the presence of 3 μM co-corrector; read-out: EC50
# log10 EC50 per record follows
Parameter value (number): base-10 log of EC50 in nM.

>>> observedvalue("Cc1nn(-c2ccccc2)c2nc(C(=O)O)cc(-c3ccc(N4CCC(F)(F)CC4)cc3)c12")
2.88
>>> observedvalue("CC(C)c1nn(C2CCCC2)c2nc(C(=O)O)cc(-c3ccc(N4CCOCC4)nc3)c12")
3.05
>>> observedvalue("O=C(O)c1cc(OCCN2CCC3(CC2)OCCO3)c2c(C3CCC3)nn(-c3ccccc3)c2n1")
2.70
>>> observedvalue("COc1cccc(-n2nc(C3CCC3)c3c(N4CCC(N5CCOCC5)CC4)cc(C(=O)O)nc32)c1")
3.06
>>> observedvalue("Cc1nn(-c2ccccc2)c2nc(C(=O)O)cc(-c3ccc(N4CC[C@H](C#N)C4)cc3)c12")
2.96
>>> observedvalue("Cc1cccc(-n2nc(C(C)C)c3c(N4CCC5C(CCN5CC#N)C4)cc(C(=O)O)nc32)c1 (stereo not shown)")
3.31

For the next question, use this compound.
Please look up its log10 EC50: `O=C(O)c1cc(N2CCC(CN3CC[C@H](F)C3)CC2)c2c(C3CCC3)nn(-c3ccccc3)c2n1`
2.15

----------
measuredTarget: ΔF508-CFTR (Homo sapiens, UniProt P13569, DEL508-508)
Construct: host or cells: CFBE41o-, doxycycline-inducible
procedureDetails: CFTR cell surface levels using HRP-tagged ΔF508-CFTR expressing CFBE cells, in the presence of a co-corrector
Assay type: cell-based
recordedConditions: HRP-tagged ΔF508-CFTR expressing CFBE cells, in the presence of 3 μM co-corrector
Source text: Measuring CFTR Cell Surface Levels Using HRP-Tagged AF508-CFTR Expressing CFBE Cells The HRP-tagged AF508-CFTR cell assay measures the expression of CFTR-ΔF508 at the plasma membrane. […] When HRP-tagged AF508-CFTR is present at the plasma membrane, the HRP enzyme activity can be measured. The amount of CFTR-ΔF508 that can be rescued to the plasma membrane is correlated with the amount of functional enzyme that can be measured. […]
measuredProperty: % Activation (%)
Field format: number, assumed %, no unit text.

>>> observedvalue("CS(=O)(=O)C1CCN(c2cc(C(=O)O)nc3c2c(C2CCC2)nn3-c2ccccc2)CC1")
456
>>> observedvalue("CN(C)c1ncc(-c2cc(C(=O)O)nc3c2c(C(C)(C)C)nn3C2CCCCC2)cn1")
318.9
>>> observedvalue("CN1CCC[C@@H](Oc2cc(C(=O)O)nc3c2c(C2CCC2)nn3-c2ccccc2)C1")
145.5
>>> observedvalue("Cc1nn(-c2ccccc2)c2nc(C(=O)O)cc(-c3ccc(N4CCC(C#N)CC4)cc3)c12")
398.15
>>> observedvalue("CCOCC1(F)CCN(c2cc(C(=O)O)nc3c2c(C(C)C)nn3-c2ccc(F)cc2)CC1")
338.35

Please look up its % Activation: Cc1cccc(-n2nc(C(C)C)c3c(N4CCC5(C4)CC5(F)F)cc(C(=O)O)nc32)c1 (stereo not drawn)
323.5

----------
measuredTarget: ΔF508-CFTR (Homo sapiens, UniProt P13569, DEL508-508)
Construct: host or cells: CFBE41o-, doxycycline-inducible
procedureDetails: CFTR cell surface levels using HRP-tagged ΔF508-CFTR expressing CFBE cells, in the presence of a co-corrector
Format: cell-based
recordedConditions: HRP-tagged ΔF508-CFTR expressing CFBE cells, in the presence of 3 μM co-corrector; read-out: EC50
# EC50 per record follows
Field format: number, assumed µM, no unit text.

Please look up its EC50: `CCC1(COc2cc(C(=O)O)nc3c2c(C2CCC2)nn3-c2ccccc2)COC1`
0.203

Please look up its EC50: CCOCC1(F)CCCN(c2cc(C(=O)O)nc3c2c(C2CCC2)nn3-c2ccccc2)C1 (stereo not drawn)
0.328

Please look up its EC50: CC(C)c1nn(C2CCCN(CC(F)(F)F)C2)c2nc(C(=O)O)cc(-c3ccc(N4CCOCC4)cc3)c12 (stereo not drawn)
0.795

----------
measuredTarget: ΔF508-CFTR (Homo sapiens, UniProt P13569, DEL508-508)
Construct: host or cells: CFBE41o-, doxycycline-inducible
procedureDetails: CFTR cell surface levels using HRP-tagged ΔF508-CFTR expressing CFBE cells, intrinsic corrector capacity
Type: cell-based
recordedConditions: HRP-tagged ΔF508-CFTR CFBE41o- cells, compounds alone (intrinsic corrector capacity), 20 hours at 33° C.; positive control 3 μM corrector
# % Activation per record follows
The reply should consist of the numeric value with the unit placed after it.

>>> observedvalue("CC(C)c1nn(-c2ccccc2)c2nc(C(=O)O)cc(-c3cnc(N4CCOCC4)nc3)c12")
"195.9%"
>>> observedvalue("Cc1nn(-c2ccccc2)c2nc(C(=O)O)cc(-c3ccc(NC4COC4)cc3)c12")
"200.55%"
>>> observedvalue("CC(C)c1nn(-c2cccc(N3CCOCC3)c2)c2nc(C(=O)O)cc(-c3ccc(N4CCC(C#N)CC4)cc3)c12")
"466.87%"
>>> observedvalue("COCCN(C)c1ccc(-c2cc(C(=O)O)nc3c2c(C(C)C)nn3C2CCCCC2)cn1")
"208.6%"
>>> observedvalue("Cc1nn(-c2ccccc2)c2nc(C(=O)O)cc(-c3ccc(N(C)C4COC4)cc3)c12")
"178%"

Please look up its % Activation: `COc1ccc(-c2cc(C(=O)O)nc3c2c(C)nn3CCC#N)cc1`
3.339%

Please look up its % Activation: `CC(C)c1nn(-c2cccc(N(C)C)c2)c2nc(C(=O)O)cc(-c3ccc(N(C)C4CCOCC4)cc3)c12`
384.15%

----------
# pEC50 per record follows
measuredTarget: ΔF508-CFTR (Homo sapiens, UniProt P13569, DEL508-508)
Construct: host or cells: CFBE41o-, doxycycline-inducible
procedureDetails: CFTR cell surface levels using HRP-tagged ΔF508-CFTR expressing CFBE cells, in the presence of a co-corrector
Type: cell-based
recordedConditions: HRP-tagged ΔF508-CFTR expressing CFBE cells, in the presence of 3 μM co-corrector; read-out: EC50
Excerpt: Measuring CFTR Cell Surface Levels Using HRP-Tagged AF508-CFTR Expressing CFBE Cells The HRP-tagged AF508-CFTR cell assay measures the expression of CFTR-ΔF508 at the plasma membrane. […] When HRP-tagged AF508-CFTR is present at the plasma membrane, the HRP enzyme activity can be measured. The amount of CFTR-ΔF508 that can be rescued to the plasma membrane is correlated with the amount of functional enzyme that can be measured. […]
Reminder that pEC50 means the negative base-10 logarithm of the concentration expressed in mol/L.

Look over these answered cases.
>>> observedvalue("CS(=O)(=O)C1CCN(c2cc(C(=O)O)nc3c2c(C2CCC2)nn3-c2ccccc2)CC1")
6.01
>>> observedvalue("CC(C)c1nn([C@@H]2CCC[C@@H](O)C2)c2nc(C(=O)O)cc(-c3ccc(N4CCOCC4)cc3)c12 (racemic)")
5.90
>>> observedvalue("CC1(CO)CN(c2cc(C(=O)O)nc3c2c(C2CCC2)nn3-c2ccccc2)C1")
5.99
>>> observedvalue("CC(C)(COc1cc(C(=O)O)nc2c1c(C1CCC1)nn2-c1ccccc1)S(C)(=O)=O")
5.67
>>> observedvalue("CN1CC[C@@H](Oc2cc(C(=O)O)nc3c2c(C2CCC2)nn3-c2ccccc2)C1")
5.48
>>> observedvalue("CS(=O)(=O)[C@@H]1CCN(c2cc(C(=O)O)nc3c2c(C2CCC2)nn3-c2ccccc2)C1")
5.48
>>> observedvalue("O=C(O)c1cc(N2CCC(CN3CCC4(COC4)C3)CC2)c2c(C3CCC3)nn(-c3ccccc3)c2n1")
6.23
>>> observedvalue("CC(C)c1nn(-c2ccc(F)cc2F)c2nc(C(=O)O)cc(-c3cnc(N4CCC(C#N)CC4)nc3)c12")
6.11

For the next question, use this molecule.
Please look up its pEC50: `CC(C)c1nn(-c2ccc(F)cc2)c2nc(C(=O)O)cc(N3CCC(N4CCN(C5CC5)CC4)CC3)c12`
6.82
